Catalogue of cell number change values
Experiment: qHTS Assay for Lipid Storage Modulators in Drosophila S3 Cells;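 on cell number change: cells counted by Cell Tracker Red CMTPX staining in the red channel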
Details: BODIPY lipid droplet fluorescence, 18-24 h, cells fed with added oleic acid; measured here: cell count max response
Source text: NIH Molecular Libraries Probe Production Centers Network [MLPCN] NIH Chemical Genomics Center [NCGC] […] Triacsin C (Sigma-Aldrich T-4540), an inhibitor of long-chain fatty acyl CoA synthetase that blocks synthesis of triglycerides, was used as a positive control for lipid under-storage. […] Fluorescence was detected by excitation of the fluorophores with a 488-nm laser on an Acumen Explorer (TTP Lab Tech). […] Cells were detected using channel 3 (575-640 nm) with 5-um width and 100-um depth filters. […]
About 2,100 (0.66%) of roughly 320,000 compounds were called active. Another 53% or so got no clear call; they are omitted. The full list was thinned out, with actives kept by preference.
Express it in %; write the number only.

See these solved cases before continuing.
{"COMPOUND": "CCN1c2ccccc2S(=O)(=O)c2ccccc21", "cell number change / %": -15.5}
{"COMPOUND": "CCCc1ccc(S(=O)(=O)N(C)S(=O)(=O)c2ccc(F)cc2)cc1", "cell number change / %": 17.6}
{"COMPOUND": "COc1ccccc1NC(=S)NCc1ccc(S(N)(=O)=O)cc1", "cell number change / %": 6.14}
{"COMPOUND": "CN(CC(=O)O)S(=O)(=O)c1ccc(F)cc1", "cell number change / %": 12.3}
{"COMPOUND": "Cc1cc(C)c(S(=O)(=O)N2CCN(S(=O)(=O)N3CCOCC3)CC2)c(C)c1", "cell number change / %": 9.13}
{"COMPOUND": "CC1CCN(C(=O)c2[nH]cnc2C(=O)N[C@@H](CCCCNC(=O)OC(C)(C)C)C(=O)OC(C)(C)C)CC1", "cell number change / %": -11.2}
{"COMPOUND": "CCOC(=O)C1=C(Nc2ccccc2)CC(C)(O)C(C(=O)OCC)C1c1ccc(Cl)cc1 (centres undefined)", "cell number change / %": 12.7}
{"COMPOUND": "Cc1ccccc1OCc1ccc(C(=O)N2CC(C)OC(C)C2)o1 (centres undefined)", "cell number change / %": 14.8}

**Q:** Look up and state reported cell number change for CCC1Sc2ccc(S(=O)(=O)CCC(=O)NCc3ccc(C)o3)cc2NC1=O (centres undefined)
**A:** -1.81

**Q:** Input O=C(Cc1ccc(F)cc1)N1CCN(c2ccc([N+](=O)[O-])cc2)CC1 , output reported cell number change.
**A:** 11.6

**Q:** Retrieve cell number change measured for CNC(=O)c1ccccc1S(=O)(=O)c1ccccc1C#N and print it.
**A:** -5.1

**Q:** Let me know recorded cell number change for COc1ccc(CCNC(=O)C2CCN(c3nccc(C)n3)CC2)cc1 , thanks.
**A:** 5.66

###

experiment: qHTS Assay for Lipid Storage Modulators in Drosophila S3 Cells; details: BODIPY lipid droplet fluorescence, 18-24 h, cells fed with added oleic acid; measured here: cell count max response;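 on cell number change: cells counted by Cell Tracker Red CMTPX staining in the red channel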
Hit rate of the full screen: of about 320,000 compounds, about 2,100 (0.66%) were called active. Not shown: some 53% with an inconclusive outcome. This is one part of a sample in which actives are shown more often than they occur.
VALUE KIND: cell number change (%)
Give the quantity in %, number only.

{"COMPOUND": "Cn1c(CC(=O)Nc2cccc(Cl)c2Cl)nnc1SCC(=O)NC1=NCCS1", "OBSERVED RESULT": 10.7}
{"COMPOUND": "CC(=O)c1cccc(NC(=O)c2ccc(C(=O)Nc3cccc(C(C)=O)c3)nc2)c1", "OBSERVED RESULT": 0.877}
{"COMPOUND": "CCOc1ccccc1NC(=S)NC1CC2CCC1C2 (stereo unspecified)", "OBSERVED RESULT": 6.16}

**Q:** In one line, give reported cell number change of the entry CC(=O)Nc1ccc(C(=O)N/N=C/c2cccnc2)cc1 .
**A:** 0.939

**Q:** Recall and state the measured cell number change for COCCCNC(=O)CCC(=O)NNc1nc2ccccc2c2nc(-c3ccccc3)nn12 .
**A:** 5.05

**Q:** Give cell number change for the following compound: CN(C)CCN(C(=O)c1ccc(C(=O)c2ccccc2)cc1)c1nc2cc3c(cc2s1)OCO3
**A:** 29

###

experiment: qHTS Assay for Lipid Storage Modulators in Drosophila S3 Cells; conditions: BODIPY lipid droplet fluorescence, 18-24 h, cells fed with added oleic acid; measured here: cell count max response;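 on cell number change: cells counted by Cell Tracker Red CMTPX staining in the red channel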
Hit rate of the full screen: of about 320,000 compounds, about 2,100 (0.66%) were called active. Inconclusive results (about 53%) are left out. For the sample, actives were picked, then their nearest neighbours and some compounds at random.
Here the recorded cell number change is given for each entry.
Numeric only. Scale: %

**Q:** Entry COc1ccc(OC)c(N=CC2=C(O)CC(C)(C)CC2=O)c1 needs its cell number change filled in; supply it.
**A:** 25.1

**Q:** For the molecule CCOC(=O)C1CCCCN1Cc1ccc(C(F)(F)F)cc1 (stereo unspecified) , give its reported cell number change.
**A:** -25.6

**Q:** Given O=C1CCCN1CCC12CC3CC(CC(C3)C1)C2 , respond with its cell number change.
**A:** -8.85

**Q:** Provide measured cell number change value, entry: O=C(NCC1OCCCN1S(=O)(=O)c1cc(F)ccc1F)C(=O)NC1CCCCCC1 (stereo unspecified)
**A:** 3.2

**Q:** Specify cell number change for O=C(NCCO)C(=O)NCC1OCCCN1S(=O)(=O)c1cc(F)ccc1F (stereo unspecified) and stop.
**A:** 0.587

**Q:** Look up cell number change of CN(Cc1ccccc1)C(=O)COc1ccc(N(C)S(=O)(=O)c2ccc(F)cc2)cc1 and report it.
**A:** -1.11

###

assay: qHTS Assay for Lipid Storage Modulators in Drosophila S3 Cells; conditions: BODIPY lipid droplet fluorescence, 18-24 h, cells fed with added oleic acid; series mostly up to 46.1 µM; further: potency means the concentration at half of the fitted maximal effect
The whole screen tested about 320,000 compounds, of which about 2,100 (0.66%) were called active. Not shown: some 53% with an inconclusive outcome. This excerpt belongs to a sample that is enriched for actives.
VALUE KIND: Potency

Example cases with answers are listed next.
{"LINE NOTATION": "COCCn1c(SCC(=O)Nc2cc(C)cc(C)c2)nc2ccccc2c1=O", "VALUE KIND": "Potency", "OBSERVED RESULT": "2.06 µM (active)"}
{"LINE NOTATION": "Cc1ccc2ncnc(Nc3ccccc3)c2c1", "VALUE KIND": "Potency", "OBSERVED RESULT": "inactive"}
{"LINE NOTATION": "Cc1ccc(C)c(N2CCN(C(=O)Nc3ccc4c(c3)N(C)C(=O)CS4)CC2)c1", "VALUE KIND": "Potency", "OBSERVED RESULT": "inactive"}
{"LINE NOTATION": "COCCCn1c(SCC(=O)Nc2ccc(C)cc2)nc2ccccc2c1=O", "VALUE KIND": "Potency", "OBSERVED RESULT": "inactive"}
{"LINE NOTATION": "CCN1CCN(Cc2ccc(OCc3ccccc3)c(OC)c2)CC1", "VALUE KIND": "Potency", "OBSERVED RESULT": "inactive"}

**Q:** Return the recorded Potency value; entry: Cc1ccccc1NS(=O)(=O)c1ccc(NS(=O)(=O)c2cccs2)cc1
**A:** inactive

**Q:** Using the record for CS(=O)(=O)c1ccc(C(=O)Nc2ccc(N3CCOCC3)cc2)c(Cl)c1 , state its measured Potency.
**A:** inactive

**Q:** For the compound Cc1ccc(NS(=O)(=O)c2ccc(NS(=O)(=O)c3cccs3)cc2)cc1 , report Potency.
**A:** inactive

**Q:** Given Cn1ncc2c(Nc3cccc([N+](=O)[O-])c3)ncnc21 , respond with its Potency.
**A:** inactive

**Q:** Could you please provide reported Potency for O=C(O)c1cccc(Nc2ncnc3ccccc23)c1 ? Thanks!
**A:** 25.9 µM (active)

**Q:** Determine its reported Potency: Nc1nonc1-n1nnc(C(=O)N/N=C/c2ccc(OCc3ccccc3)cc2)c1CN1CCCCC1
**A:** inactive

###

experiment: qHTS Assay for Lipid Storage Modulators in Drosophila S3 Cells; conditions: BODIPY lipid droplet fluorescence, 18-24 h, cells fed with added oleic acid; series mostly up to 46.1 µM; further: potency means the concentration at half of the fitted maximal effect
About 2,100 (0.66%) of roughly 320,000 compounds were called active. Inconclusive results (about 53%) are left out. Shown is part of a subset that was picked to be rich in actives.
VALUE KIND: Potency

A selection of reference data follows.
{"COMPOUND": "CCN(CC)S(=O)(=O)c1ccc(NN=C2CCN(C(C)C)CC2)c([N+](=O)[O-])c1", "Potency": "inactive"}
{"COMPOUND": "Cc1cc2c(cc1S(=O)(=O)N(C)c1ccccc1)n(C)c(=O)n2C", "Potency": "inactive"}
{"COMPOUND": "CCN(CC)C(=O)c1ccc2nc(-c3ccccc3)c(-c3ccccc3)nc2c1", "Potency": "inactive"}
{"COMPOUND": "CN(C)CC(C)(C)CNS(=O)(=O)c1ccc(Cl)c(Cl)c1", "Potency": "23.1 µM (active)"}
{"COMPOUND": "N#CCCNC(=O)Cn1c(COc2ccc(Cl)cc2)nc2ccccc21", "Potency": "inactive"}

**Q:** Fill in Potency for record CC(C)(CNS(=O)(=O)c1ccc(F)cc1)CNS(=O)(=O)c1ccc(F)cc1
**A:** inactive

**Q:** Check the records and state Potency for CC(C)N(C(=O)c1ccc2nc(-c3ccccc3)c(-c3ccccc3)nc2c1)C(C)C
**A:** 1.64 µM (active)

**Q:** Name the recorded Potency of the item O=c1c2ccccc2nnn1CCN1CCOCC1 in your answer.
**A:** inactive
